experiment: Mean residence time in rat at 0.5 mg/kg, iv; assay type: ADME, organism-based; parameters: dose 0.5 mg/kg, route intravenous; settings: in vivo
MEASURED QUANTITY: MRT
Please format your answer as a value with the unit trailing.

Guide cases for MRT, answers given:
{"columns": ["COMPOUND", "MEASURED QUANTITY", "RESULT"],
 "data": [
  ["CC(C)C[C@@H](C(=O)NCC#N)c1cccc(-c2ccc(N3CCNCC3)cc2)c1", "MRT", "2.58 h"],
  ["CC(C)CC(C(=O)NCC#N)c1cccc(-c2ccc(-c3csc(N4CCNCC4)n3)cc2)c1 (racemic)", "MRT", "1.77 h"]
]}

Each compound below has a reported value. Please supply its MRT.
1. CC(C)C[C@@H](C(=O)NCC#N)c1cccc(-c2cccc(-c3csc(N4CCN(C(C)(C)C)CC4)n3)c2)c1
2. CC(C)CC(C(=O)NCC#N)c1cccc(-c2cccc(-c3csc(N4CCNCC4)n3)c2)c1 (racemic)
3. CC(C)CC(C(=O)NCC#N)c1cccc(-c2cccc(-c3csc(N4CCN(C)CC4)n3)c2)c1 (racemic)
4. CC(C)C[C@@H](C(=O)NCC#N)c1cccc(-c2cccc(-c3csc(CN4CCNCC4)n3)c2)c1

# output
1.82 h
2.93 h
0.9 h
2.33 h

====

So I've got a bunch of compounds here, and I need their Vd values.
test: Volume of distribution in rat at 0.5 mg/kg, iv; type: ADME, organism-based; parameters: dose 0.5 mg/kg, route intravenous; settings: in vivo, read-out: Vss
Give bare numbers, in L/kg.

Guide cases for Vd, answers given:
{"columns": ["COMPOUND", "NUMBER"],
 "data": [
  ["CC(C)C[C@@H](C(=O)NCC#N)c1cccc(-c2ccc(N3CCNCC3)cc2)c1", 14.8],
  ["CC(C)CC(C(=O)NCC#N)c1cccc(-c2ccc(-c3csc(N4CCNCC4)n3)cc2)c1 (racemic)", 12],
  ["CC(C)C[C@@H](C(=O)NCC#N)c1cccc(-c2cccc(-c3csc(N4CCN(C(C)(C)C)CC4)n3)c2)c1", 6.6],
  ["CC(C)CC(C(=O)NCC#N)c1cccc(-c2cccc(-c3csc(N4CCNCC4)n3)c2)c1 (racemic)", 4.3],
  ["CC(C)CC(C(=O)NCC#N)c1cccc(-c2cccc(-c3csc(N4CCN(C)CC4)n3)c2)c1 (racemic)", 1.7]
]}

Now for the compound whose Vd we want.
# input Which Vd value is on record for CC(C)C[C@@H](C(=O)NCC#N)c1cccc(-c2cccc(-c3csc(CN4CCNCC4)n3)c2)c1 ?
# output 9.1

====

molecular target: Cathepsin (S and K) (Homo sapiens) (UniProt P25774+P43235); assay: Selectivity for cathepsin S over cathepsin K; format: protein assay
Sequence (P25774 whole entry): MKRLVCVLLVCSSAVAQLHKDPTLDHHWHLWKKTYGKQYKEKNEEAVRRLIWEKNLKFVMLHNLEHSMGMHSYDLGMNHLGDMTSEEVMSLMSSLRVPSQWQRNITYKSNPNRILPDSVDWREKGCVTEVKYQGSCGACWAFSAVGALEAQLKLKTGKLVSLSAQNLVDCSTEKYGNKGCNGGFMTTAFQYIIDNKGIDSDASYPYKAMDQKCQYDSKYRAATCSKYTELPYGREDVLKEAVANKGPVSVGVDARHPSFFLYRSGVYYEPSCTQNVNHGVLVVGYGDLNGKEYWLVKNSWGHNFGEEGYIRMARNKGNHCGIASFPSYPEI
Rule: 1 for Selectivity ratio not less than 3000, 0 for anything less.

As a guide, the following entries are already answered.
{"columns": ["MOLECULE", "ASSIGNED CLASS"],
 "data": [
  ["CC(C)CC(C(=O)NCC#N)c1cccc(-c2cccc(-c3csc(N4CCNCC4)n3)c2)c1 (racemic)", 1],
  ["CC(C)C[C@@H](C(=O)NCC#N)c1cccc(-c2cccc(-c3csc(N4CCN(C(C)(C)C)CC4)n3)c2)c1", 1],
  ["CC(C)CC(C(=O)NCC#N)c1cccc(-c2ccc(-c3csc(N4CCNCC4)n3)cc2)c1 (racemic)", 0],
  ["CC(C)CC(C(=O)NCC#N)c1cccc(-c2cccc(-c3csc(N4CCN(C)CC4)n3)c2)c1 (racemic)", 0],
  ["CC(C)C[C@@H](C(=O)NCC#N)c1cccc(-c2cccc(-c3csc(N4CCC(N(C)C)C4)n3)c2)c1 (some centres not stated)", 0]
]}

# input Exam item: decide whether the reported Selectivity ratio for CC(C)C[C@@H](C(=O)NCC#N)c1cccc(-c2ccc(N3CCNCC3)cc2)c1 is at least 3000.
# output 0

# input Exam item: decide whether the reported Selectivity ratio for CC(C)C[C@@H](C(=O)NCC#N)c1cccc(-c2cccc(-c3csc(CN4CCNCC4)n3)c2)c1 is at least 3000.
# output 0

====

test: Oral bioavailability in rat at 10 mg/kg, po; assay type: ADME, organism-based; details: in vivo
MEASURED QUANTITY: bioavailability (%)
Answers are plain numbers, in %.

# input Which bioavailability value is on record for CC(C)CC(C(=O)NCC#N)c1cccc(-c2cccc(-c3csc(N4CCNCC4)n3)c2)c1 (racemic) ?
# output 85

====

molecular target: Cathepsin (L and K) (Homo sapiens) (UniProt P43235+P07711); test: Selectivity for cathepsin L over cathepsin K; type: protein assay
So I've got a bunch of molecules here, and I need their Selectivity ratio values.
Give bare numbers.

Guide cases for Selectivity ratio, answers given:
{"columns": ["MOLECULE", "Selectivity ratio"],
 "data": [
  ["CC(C)C[C@@H](C(=O)NCC#N)c1cccc(-c2ccc(N3CCNCC3)cc2)c1", 580],
  ["CC(C)C[C@@H](C(=O)NCC#N)c1cccc(-c2cccc(-c3csc(CN4CCNCC4)n3)c2)c1", 141],
  ["CC(C)CC(C(=O)NCC#N)c1cccc(-c2ccc(-c3csc(N4CCNCC4)n3)cc2)c1 (racemic)", 714]
]}

Each molecule below has a reported value. Please supply its Selectivity ratio.
1. CC(C)C[C@@H](C(=O)NCC#N)c1cccc(-c2cccc(-c3csc(N4CCN(C(C)(C)C)CC4)n3)c2)c1
2. CC(C)C[C@@H](C(=O)NCC#N)c1cccc(-c2cccc(-c3csc(N4CCC(N(C)C)C4)n3)c2)c1 (some centres not stated)
3. CC(C)CC(C(=O)NCC#N)c1cccc(-c2cccc(-c3csc(N4CCNCC4)n3)c2)c1 (racemic)
4. CC(C)CC(C(=O)NCC#N)c1cccc(-c2cccc(-c3csc(N4CCN(C)CC4)n3)c2)c1 (racemic)

# output
276
180
237
300

====

test: Clearance in rat at 0.5 mg/kg, iv; format: ADME, organism-based; parameters: dose 0.5 mg/kg, route intravenous; details: in vivo
MEASURED QUANTITY: clearance
Please format your answer as a value with the unit trailing.

Guide cases for clearance, answers given:
{"columns": ["MOLECULE", "RESULT"],
 "data": [
  ["CC(C)CC(C(=O)NCC#N)c1cccc(-c2cccc(-c3csc(N4CCNCC4)n3)c2)c1 (racemic)", "25 mL/min/kg"],
  ["CC(C)C[C@@H](C(=O)NCC#N)c1cccc(-c2cccc(-c3csc(CN4CCNCC4)n3)c2)c1", "65 mL/min/kg"],
  ["CC(C)CC(C(=O)NCC#N)c1cccc(-c2cccc(-c3csc(N4CCN(C)CC4)n3)c2)c1 (racemic)", "32 mL/min/kg"],
  ["CC(C)C[C@@H](C(=O)NCC#N)c1cccc(-c2ccc(N3CCNCC3)cc2)c1", "98 mL/min/kg"]
]}

Each molecule below has a reported value. Please supply its clearance.
1. CC(C)CC(C(=O)NCC#N)c1cccc(-c2ccc(-c3csc(N4CCNCC4)n3)cc2)c1 (racemic)
2. CC(C)C[C@@H](C(=O)NCC#N)c1cccc(-c2cccc(-c3csc(N4CCN(C(C)(C)C)CC4)n3)c2)c1

# output
["114 mL/min/kg", "60 mL/min/kg"]

====

Reported values: pKi for UniProtKB P25774, one per item.
One number for each entry, as −log10 of the molar value.

Guide cases for pKi, answers given:
{"columns": ["MOLECULE", "pKi"],
 "data": [
  ["CC(C)CC(C(=O)NCC#N)c1cccc(-c2cccc(-c3csc(N4CCN(C)CC4)n3)c2)c1 (racemic)", 5.74],
  ["CC(C)C[C@@H](C(=O)NCC#N)c1cccc(-c2cccc(-c3csc(N4CCC(N(C)C)C4)n3)c2)c1 (stereo partly drawn)", 5.44]
]}

# input Which pKi value is on record for CC(C)C[C@@H](C(=O)NCC#N)c1cccc(-c2cccc(-c3csc(CN4CCNCC4)n3)c2)c1 ?
# output 5.13
